- testDescription: refractive index (other wavelength) (dimensionless)
- conditionNotes: 1173 K; 101 kPa; Liquid; Wavelength=632.8 nm; ellipsometry
Assign refractive index to each entry below.
One number for each entry.

Reference set (6 entries):
compound	quantityName	experimentalValue
[Cl-].[Cs+] [cesium chloride]	refractive index	1.411
[Cl][Sm]([Cl])[Cl] [samarium chloride]	refractive index	1.672
[Cl-].[K+] [potassium chloride]	refractive index	1.377
[Cl][Ce]([Cl])[Cl] [cerium trichloride]	refractive index	1.685
[Cl][Nd]([Cl])[Cl] [neodymium(III) chloride]	refractive index	1.686
[Cl-].[Na+] [sodium chloride]	refractive index	1.399

From here, focus on the item given below.
Ask: refractive index lookup needed for [Cl-].[Cl-].[Cl-].[Gd+3] [gadolinium(III) chloride] , thanks.
Result: 1.662

====

- testDescription: refractive index (other wavelength) (dimensionless); xn = mol fraction of the nth substance listed
- conditionNotes: 1123 K; 100 kPa; Liquid; Wavelength=632.8 nm; ellipsometry; x1 = 0.5
quantityName: refractive index
Give bare numbers.

compound	refractive index
[Cl-].[Cl-].[Cl-].[Gd+3] [gadolinium(III) chloride] + [Cl-].[K+]	1.534
[Cl][Sm]([Cl])[Cl] [samarium chloride] + [Cl-].[K+]	1.54
[Cl][Ce]([Cl])[Cl] [cerium trichloride] + [Cl-].[K+]	1.552
[Cl][Ce]([Cl])[Cl] [cerium trichloride] + [Cl-].[Cs+]	1.545
[Cl][Sm]([Cl])[Cl] [samarium chloride] + [Cl-].[Na+]	1.58

Parameters: items (list). Returns: refractive index for each item.
1. [Cl-].[Cl-].[Cl-].[Gd+3] [gadolinium(III) chloride] + [Cl-].[Na+]
2. [Cl-].[Cl-].[Cl-].[Gd+3] [gadolinium(III) chloride] + [Cl-].[Cs+]

Result:
1: 1.55; 2: 1.535

====

- testDescription: refractive index (other wavelength) (dimensionless); xn = mol fraction of the nth substance listed
- conditionNotes: 973 K; 100 kPa; Liquid; Wavelength=632.8 nm; ellipsometry; x1 = 0.5
quantityName: refractive index
Give bare numbers.

molecule	refractive index
[Cl][Sm]([Cl])[Cl] [samarium chloride] + [Cl-].[Na+]	1.613

Could I get refractive index for every one of these entries?
1. [Cl-].[Cl-].[Cl-].[Gd+3] [gadolinium(III) chloride] + [Cl-].[Na+]
2. [Cl][Sm]([Cl])[Cl] [samarium chloride] + [Cl-].[K+]
3. [Cl-].[Cl-].[Cl-].[Gd+3] [gadolinium(III) chloride] + [Cl-].[Cs+]
4. [Cl-].[Cl-].[Cl-].[Gd+3] [gadolinium(III) chloride] + [Cl-].[K+]

Result:
1. 1.58
2. 1.588
3. 1.56
4. 1.551

====

- testDescription: refractive index (other wavelength) (dimensionless)
- conditionNotes: 1073 K; 101 kPa; Liquid; Wavelength=632.8 nm; ellipsometry
Answer each item with its documented refractive index.
Answers are plain numbers.

Use these answered entries as a reference point.
molecule	refractive index
[Cl-].[Cl-].[Cl-].[Gd+3] [gadolinium(III) chloride]	1.675
[Cl-].[Cs+] [cesium chloride]	1.43
[Cl-].[K+] [potassium chloride]	1.393

Below are 2 molecules. Give each one its refractive index.
1. [Cl][Sm]([Cl])[Cl] [samarium chloride]
2. [Cl][Nd]([Cl])[Cl] [neodymium(III) chloride]

Result:
[1.691, 1.701]
